B1: library; numbered along this chain (parent)
chain: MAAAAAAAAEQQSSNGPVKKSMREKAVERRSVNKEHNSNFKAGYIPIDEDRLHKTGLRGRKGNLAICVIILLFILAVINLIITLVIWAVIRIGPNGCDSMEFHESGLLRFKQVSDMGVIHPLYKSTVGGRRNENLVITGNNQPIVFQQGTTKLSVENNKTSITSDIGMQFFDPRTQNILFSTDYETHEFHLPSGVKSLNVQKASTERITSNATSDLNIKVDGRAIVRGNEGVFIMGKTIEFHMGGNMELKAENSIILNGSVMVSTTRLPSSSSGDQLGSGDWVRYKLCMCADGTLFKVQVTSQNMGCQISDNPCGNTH

- Variants of: B1
- ASSAY: SGCB cell-surface expression functional score (HA stain, bin4 vs bin1, normalised to synonymous) (log10 ratio); higher = more cell-surface SGCB (functional)
Recorded SGCB cell-surface expression functional score (log10) for the following variants
RECORDED_METRIC: SGCB cell-surface expression functional score (log10)

INSERT INTO results (mutation_id, value_reported) VALUES
  ('N63C', -0.16),
  ('T209M', 0.74),
  ('F241N', -0.57),
  ('A8V', 0.43),
  ('L107D', -0.74),
  ('K159G', 0.43),
  ('Q112W', -0.83),
  ('E104P', 0.47),
  ('S38N', 0.37),
  ('D281S', -0.22),
  ('T205Y', -1.37);

Origin of values: the supplement of paper PMC10266784
